Where these numbers come from: ChEMBL document CHEMBL1128354

test: LD50 value for endothelial cells was determined; format: ADME, cell-based, Endothelial cell; details: human, read-out: LD50 (the source's name)
I'd appreciate it if you could supply CC50 values for the items below.
One number for each entry, in µM.

Sample answers from the record:
{"compound": "O=C(O)C(CCCCC1c2ccccc2-c2ccccc21)Cc1ccccc1 (configuration not stated)", "result_value": 72}
{"compound": "Cc1ccc2c(c1)C(COC(=O)N[C@@H](CC(C)C)C(=O)O)c1cc(C)ccc1-2", "result_value": 354}

Now look at this one.
Would you kindly share the measured CC50 for O=C(Nc1ccc(C(=O)O)cc1)OCCC1c2cc(Cl)ccc2-c2ccc(Cl)cc21 ? 82.3
